Test system: Setaria viridis
Experiment: Herbicidal pre-emergence action
Format: in vivo
Details: pre-emergence method, 80 g/ha, greenhouse, visual assessment vs untreated controls
Source text: Seeds of monocotylidonous and dicotylidonous weed and crop plants are placed in sandy loam in wood fibre pots and covered with soil. The test compounds, formulated in the form of wettable powders (WP), are then, as an aqueous suspension with a water application rate of 600 l/ha (converted), with 0.2% of wetting agent added, applied to the surface of the covering soil in different amounts. […]
Criterion: herbicidal effect SETVI strictly less than 80%. Met: 1.0. Not met: 0.0.

Reference set (3 entries):
CCc1cc(C)cc(CC)c1C1=C(OC(=O)OC)C2CC3(CC2C1=O)OCC(C)(C)CO3 (stereo not shown)	0.0
C=C1CC2C(=O)C(c3c(C)cc(C)cc3CC)=C(OC(=O)C(C)C)C2C1 (stereo not shown)	0.0
CCc1cc(C)cc(CC)c1C1=C(O)C2CC3(COC(CC)O3)CC2C1=O (stereo not shown)	1.0

Exercise: Quick check: herbicidal effect SETVI of COc1cc(C)cc(C)c1C1=C(OC(=O)C(C)C)C2CC3(CC2C1=O)OCCCO3 (stereo not shown) under 80%?
Solution: 0.0

====

System: Alopecurus myosuroides
Experiment: Herbicidal post-emergence action
Assay type: in vivo
Conditions: post-emergence method, 80 g/ha
Metric name: herbicidal effect against ALOMY (Alopecurus myosuroides) (%)
Dear colleague, please return just the value in %, with no unit written.

CCOC(=O)OC1=C(c2c(C)cc(C)cc2CC)C(=O)C2CC3(CC12)OCCO3 (racemic)	80
C=C1COC2(CC3C(=O)C(c4c(CC)cc(C)cc4CC)=C([O-])C3C2)OC1.[Na+] (centres unmarked)	100
CCOC(=O)OC1=C(c2c(C)cc(C)cc2C)C(=O)C2CC3(COC(C)(C)O3)CC12 (mixture of isomers)	90

Now turn to the next compound.
Exercise: Identify herbicidal effect against ALOMY (Alopecurus myosuroides) associated with the compound CCc1cc(C)cc(CC)c1C1=C(OC(=O)C(C)(C)C)C2CC3(COC(C)(C)O3)CC2C1=O (centres unmarked) [I-b-8]
Solution: 90

====

Test system: Alopecurus myosuroides
Assay: Herbicidal post-emergence action
Assay type: in vivo
Conditions: post-emergence method, 80 g/ha
Metric name: herbicidal effect against ALOMY (Alopecurus myosuroides)

CCOC(=O)OC1=C(c2c(C)cc(C)cc2C)C(=O)C2CC3(CC12)OCC=CCO3 (racemic)	100%

Exercise: Identify herbicidal effect against ALOMY (Alopecurus myosuroides) associated with the compound COc1cc(C)cc(C)c1C1=C(O)C2CC3(CC2C1=O)OCC=CCO3 (stereo not drawn)
Solution: 100%

====

Tested on: Alopecurus myosuroides
Assay: Herbicidal post-emergence action
Assay type: in vivo
Conditions: post-emergence method, 80 g/ha
Metric name: herbicidal effect against ALOMY (Alopecurus myosuroides) (%)
Dear colleague, please return just the value in %, with no unit written.

Some solved cases for reference:
CCc1cc(C)cc(CC)c1C1=C(OC(=O)OC)C2CC3(CC2C1=O)OCCS3 (mixture of isomers)	70
C=C1CC2C(=O)C(c3c(C)cc(C)cc3CC)=C(OC(=O)C(C)(C)C)C2C1 (centres unmarked)	0
CCc1cc(C)cc(CC)c1C1=C(OC(=O)OC)C2CC3(CC2C1=O)OCC=CCO3 (centres unmarked)	90
CCOC(=O)OC1=C(c2c(C)cc(C)cc2OC)C(=O)C2CC3(CC12)OCC=CCO3 (racemic)	100

Exercise: # return herbicidal effect against ALOMY (Alopecurus myosuroides) for COCC(=O)OC1=C(c2c(C)cc(C)cc2C)C(=O)C2CC(=O)CC12 (centres unmarked) , test system: Alopecurus myosuroides
Solution: 20
